# Study system: Neuromedin-K receptor (Homo sapiens, UniProt P29371)
# Sequence (P29371 whole entry): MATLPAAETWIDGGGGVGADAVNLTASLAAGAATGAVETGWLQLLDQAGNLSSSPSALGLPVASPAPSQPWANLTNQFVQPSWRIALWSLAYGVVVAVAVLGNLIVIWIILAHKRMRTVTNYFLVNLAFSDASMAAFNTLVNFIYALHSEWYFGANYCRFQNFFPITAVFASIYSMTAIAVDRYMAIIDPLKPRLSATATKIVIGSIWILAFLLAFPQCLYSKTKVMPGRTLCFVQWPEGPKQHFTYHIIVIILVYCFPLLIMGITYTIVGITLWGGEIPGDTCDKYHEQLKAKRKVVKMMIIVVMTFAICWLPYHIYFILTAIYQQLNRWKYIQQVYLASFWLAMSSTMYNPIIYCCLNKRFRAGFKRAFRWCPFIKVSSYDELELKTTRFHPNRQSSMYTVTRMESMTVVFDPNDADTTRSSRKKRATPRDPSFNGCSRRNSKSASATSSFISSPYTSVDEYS
# Procedure text: Displacement of [3H]-SR142801 from human NK3 receptor
Property measured: Ki (µM)

# example entries with known answers
{"Chemical structure": "O=C(Cc1cc(C(F)(F)F)cc(C(F)(F)F)c1)N[C@H](C(=O)NCCN1CCOCC1)c1ccccc1", "Value measured": 10}
{"Chemical structure": "CN1CCN(CCNC(=O)[C@@H](NC(=O)C(C)(C)c2cc(C(F)(F)F)cc(C(F)(F)F)c2)c2ccccc2)CC1", "Value measured": 10}
{"Chemical structure": "CN(C(=O)C(C)(C)c1cc(C(F)(F)F)cc(C(F)(F)F)c1)[C@H](C(=O)NCCN1CCOCC1)c1ccccc1", "Value measured": 10}

[a] CC(C)(C(=O)N[C@H](C(=O)NCCN1CCOCC1)c1ccccc1)c1cc(C(F)(F)F)cc(C(F)(F)F)c1
[b] CC(C)(C(=O)N[C@H](C(=O)NCCN1CCOCC1)c1ccccc1)c1ccccc1
Which entry has a larger number for Ki, a or b ? Output the label that corresponds to your choice.
b
(b: 10 µM, a: 1 µM)

The reported numbers originate from ChEMBL document CHEMBL3102845.
